src = PubChem BioAssay AID1159506

For each record, write down the corresponding seed-corrected z-score.
assay: Identification of proteins required for the processing of the EWS-FLI1 nascent transcript;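 note: robust z of luciferase light less the median z of siRNAs with the same seed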
condition notes: TC32 Ewing sarcoma NR0B1-luc vs CMV-luc, 48 h; screened at 20 nM (by protocol)
In all, about 59,000 sequences were measured (the read-out: median about -0.00055, lowest 2% from about -2 on). The sample as a whole holds a higher share of the lowest values than the screen did.
Format: numeric value only, no unit, no commentary.

# seed-corrected z-score of UUCUUUUAUUGCCUCGGGU against KISS1 = 0.198

# seed-corrected z-score of AACAGGCUCAGGGAUAUUG against MORN2 = -1.84

# seed-corrected z-score of UUCGCUUAACAUGCUCUCC against SKIL = -1.15

# seed-corrected z-score of UUCUUUAUUGAGUGCAUGG against KLK6 = -1.38

# seed-corrected z-score of UAAGUUUAUAGUUGGGAAC against RPS25P6 = -0.0501

----------
For each record, write down the corresponding seed-corrected z-score.
assay: Identification of proteins required for the processing of the EWS-FLI1 nascent transcript;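 note: robust z of luciferase light less the median z of siRNAs with the same seed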
condition notes: TC32 Ewing sarcoma NR0B1-luc vs CMV-luc, 48 h; screened at 20 nM (by protocol)
Over roughly 59,000 sequences, the read-out has its median near -0.00055; the lowest 2% begin near -2. This is one part of a sample in which the lowest values are shown more often than they occur.

# seed-corrected z-score of UACGCUUUCUCUACAGUAC against ZNF606 = 0.237

# seed-corrected z-score of AAUUUAAUAGUGUUUGUGC against PLPP4 = 0.11

# seed-corrected z-score of AUAGUGUCGAUAAAAACCU against CHRNA1 = 0.527

# seed-corrected z-score of UUGGAAUACAUUGCCGUUC against SSR1 = -0.807

# seed-corrected z-score of UCCAGCUGAACUGUCACUC against TBX10 = -0.201

# seed-corrected z-score of AAUGAAAUAGUGCUGUUUG against KCTD1 = 0.318

# seed-corrected z-score of UUUGGUAACCUCUAGGUGC against RUFY2 = 0.0818

# seed-corrected z-score of UAUGCUCUCUGAUCGAAUG against ATG16L1 = 0.136

# seed-corrected z-score of UGUUGUUCUUGACUGACUG against SNRPD2P1 = -4.32

# seed-corrected z-score of UGAGAUUUGAUGAUUCUGC against OR7E24 = 0.344

# seed-corrected z-score of UUCUUGAUCUUGGAUCUUU against DLX5 = -0.846

# seed-corrected z-score of ACCGUUAAACUUGUAAUCG against ZFYVE9 = 0.0151

# seed-corrected z-score of UCUCUUAUGCAGCUUGUGG against SPTBN4 = 0.43

# seed-corrected z-score of UCUCUUGAUGUGGACACUC against ITGAD = -0.0619

# seed-corrected z-score of UUAGCAUUCCUGGAAUCCG against EIF5B = -2.11

# seed-corrected z-score of UUUGAUUUGGUUGUGACCC against ZYX = -0.301

# seed-corrected z-score of UUAUUUUGAAUAGCCUUCC against SERBP1 = 1.09

----------
assay: Identification of proteins required for the processing of the EWS-FLI1 nascent transcript;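 note: robust z of luciferase light less the median z of siRNAs with the same seed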
condition notes: TC32 Ewing sarcoma NR0B1-luc vs CMV-luc, 48 h; screened at 20 nM (by protocol)
Over roughly 59,000 sequences, the read-out has its median near -0.00055; the lowest 2% begin near -2. The sample as a whole holds a higher share of the lowest values than the screen did.
Classify as follows. Reported seed-corrected z-score greater than or equal to -0.2: TRUE. Reported seed-corrected z-score below: FALSE.

Task: Please check the record UUUCCAACAUGAUCCACUG against TM2D2 and state if its seed-corrected z-score is at or above -0.2.
Result: TRUE

Task: Please check the record UAAUGGGCACGAAUGACGG against ST8SIA3 and state if its seed-corrected z-score is at or above -0.2.
Result: TRUE

Task: Please check the record UAGCGAUUGUGAAUCUUGC against RNF19A and state if its seed-corrected z-score is at or above -0.2.
Result: FALSE

Task: Please check the record UUUCUGAUCAUCUUGGUCC against SAFB and state if its seed-corrected z-score is at or above -0.2.
Result: TRUE

Task: Please check the record UGUCUUCGCACUCUUAUCC against IFRD1 and state if its seed-corrected z-score is at or above -0.2.
Result: FALSE

Task: Please check the record AGUGAUGAAAGCAAAGUAG against KCNK16 and state if its seed-corrected z-score is at or above -0.2.
Result: TRUE

----------
assay: Identification of proteins required for the processing of the EWS-FLI1 nascent transcript;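 note: robust z of luciferase light less the median z of siRNAs with the same seed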
condition notes: TC32 Ewing sarcoma NR0B1-luc vs CMV-luc (EWS-FLI1 target promoter against control promoter), 48 h; screened at 20 nM (by protocol)
Whole data set: some 59,000 sequences, median the read-out near -0.00055, cut for the lowest 2% near -2. Many of the other results were omitted from the sample, so the lowest values are more common in it than they were.
measured metric: seed-corrected z-score
Format: numeric value only, no unit, no commentary.

# seed-corrected z-score of UAAGGUCCCAGAAAGGCCU against ZP4 = 0.208

# seed-corrected z-score of AGGAAUACAAGUCAUAUGC against TFB2M = 0.916

# seed-corrected z-score of UAGGGAACUCGUAUCUAGC against RNF213 = 0.191

# seed-corrected z-score of UAUGCUUGCAGUCCACUGG against DYNLT3 = 1.02

# seed-corrected z-score of UAAUCUUUAUUGUCACUAG against GRB7 = -0.659

# seed-corrected z-score of UACACUCCUCUGAAGUUUG against ZNF396 = -0.508

# seed-corrected z-score of UUAAAGACUUCAUAAAAGC against SLC25A3 = -0.603

# seed-corrected z-score of UGAUGAACUGGUUAUGAGG against LAPTM5 = 1.26

# seed-corrected z-score of UCUUCAGCCGCAUCGAUCU against TNNI2 = 0.556

# seed-corrected z-score of UAUGGAAUAAGUUGCUCGA against MED30 = -0.0259

# seed-corrected z-score of AAAAGACCAAAGCCCAUGU against RPLP1 = -2.92

# seed-corrected z-score of AUAGAUUAACCAUGUUUCC against KCNN3 = -0.34

# seed-corrected z-score of UAAGGUUCUCCCUCACAGC against JAKMIP2 = -0.785

# seed-corrected z-score of UCCAUUACAAUCGACCUUU against PROK2 = -0.664

# seed-corrected z-score of AAUGGUAAACUUGAUUUCA against TP53I11 = 0.091

# seed-corrected z-score of UCAUAGGACCAGUCAAUGC against CPA2 = 0.13

# seed-corrected z-score of UUUCUGGUGACCCUUUUUC against TSG101 = -0.683

# seed-corrected z-score of UUUGGAGAACUCCCUGGGC against FLYWCH1 = -0.00776

# seed-corrected z-score of UUCCAGUUGAGUGGUGUCC against SLA2 = -2.67

# seed-corrected z-score of UACUUAUCUCUGUCUGUUU against UBE2D3 = -1.14

# seed-corrected z-score of UGGAUUGUCAACACCAAUG against CCT2 = -0.17

# seed-corrected z-score of UACAUCCUCAUUAUAGGUU against ZNRF2 = -0.243

# seed-corrected z-score of UGCUUGAACGUGUCCGUCC against LRRC4B = -0.284

# seed-corrected z-score of UAGAGGAUAAUGUUCUCGG against ABHD17C = -12.1

# seed-corrected z-score of AAAUGUACAGGGAUCCAGG against ACCSL = -2.2

# seed-corrected z-score of UUCUUAUUGAGUUUCAGCC against MSN = 0.564

# seed-corrected z-score of AGGAGACUCAGCUUGAUCC against SPATA45 = -2.01

# seed-corrected z-score of UACAGGUAAACAGGUCGUG against SKINT1L = -3.34

# seed-corrected z-score of UCAUUAGACAUAACAUUGC against ALG13 = 0.117

# seed-corrected z-score of UCCAGAAGCUGGAUGGUCC against GALE = -0.197

# seed-corrected z-score of UGAGAGAUAAUUUUGGGAG against SPDYC = -12.8

# seed-corrected z-score of UAGUGUACAAGGGUCAGGC against TSPAN17 = 0.12

# seed-corrected z-score of UGUAAUACCUGAAUCGGUG against PRKRA = -0.234

# seed-corrected z-score of UCCAUUAUCCCAAUAGACC against PGM2 = -0.182

# seed-corrected z-score of UUCGGCUUCACUGUUAUCC against TNR = -2.16

# seed-corrected z-score of UGCUGAAACCUUGAUGUGC against CRTC3 = 1.11

# seed-corrected z-score of UGGUUAGCAAUGCAUAUUC against SV2C = 0.364

# seed-corrected z-score of UUCCUUCCUCGUUCAUUGC against KGFLP1 = -2.1

# seed-corrected z-score of AACUCUGCGAACACGGCCU against AQP5 = -2.17

# seed-corrected z-score of UGUUAUUGAAGAUGUCAGC against SLF2 = -2.1

# seed-corrected z-score of UUCUGCAAGCUCACUGUCC against TTC7A = -0.896

# seed-corrected z-score of UACAGCUAAACUGUACAGC against ORC6 = -2.09

# seed-corrected z-score of ACAGGGACAAUGUAGGAAG against PRSS47 = -2.17

# seed-corrected z-score of AUUAUGAGCAUGCAGGUUC against ANKRD6 = 1.1

# seed-corrected z-score of UUGUGAACUGAUUACACUG against CCDC66 = 0.423

# seed-corrected z-score of UUCUGAUGUAUGUUGAGCC against ZNF350 = -4.18

# seed-corrected z-score of UCUUCUUCCAGUAUAAGGC against KITLG = 0.53

# seed-corrected z-score of UACAGUAGCACUGCCCUGU against LAMA5 = -2.69

# seed-corrected z-score of UCAGGAUCCAGACAGUUGC against TP53AIP1 = 0.541

# seed-corrected z-score of UAUCUAGUAGUAGUUCACC against CAB39 = 0.229
